# MEASUREMENT DESCRIPTION: Cytotoxicity against human HepG2.2.15 cells assessed as reduction in cell viability
# Format: cell-based, HepG2 2.2.15
MEASUREMENT KIND: CC50

- STRUCTURE: "Nc1ncnc2c1ncn2[C@@H]1C[C@H]([C@H](O)CO)[C@@H](O)[C@H]1O"
  MEASURED RESULT: "> 100 µM"

In the following, a different molecule is considered.
## Input Give reported CC50 value for Nc1ncnc2c1ncn2[C@@H]1C[C@H]([C@@H](O)CO)[C@@H](O)[C@H]1O
## Output > 100 µM

---

# MEASUREMENT DESCRIPTION: Cytotoxicity against HFF assessed as reduction in cell viability
# Assay type: cell-based
# EXPERIMENTAL SETUP: human, HFF cells
MEASUREMENT KIND: CC50

## Input Give reported CC50 value for Nc1ncnc2c1ncn2[C@@H]1C[C@H]([C@@H](O)CO)[C@@H](O)[C@H]1O
## Output > 300 µM

These entries and their values trace back to ChEMBL document CHEMBL4219208.
